Test system: SK-OV-3 ovarian
assay-comment: NCI-60 one-dose screen, 48 h (100 = growth as untreated, 0 = no growth, -100 = all killed)
measurement-conditions: 10 µM unless noted
Compounds without any hit were thinned out: in the full panel of roughly 83,000, 20% have a hit. Active and inactive are the calls of the source. How the source made its calls: active means growth percent below 10; inactive means the rest.
property-measured: growth

CCCc1cc(=O)n2c(C(=O)Nc3ccccc3OC)c(C(=O)Nc3ccc(F)cc3)sc2n1	29.9% [30 µM] (inactive)
O=C(Nc1nc2ccccc2s1)c1cc(-c2ccc(F)cc2)n2nc(-c3ccccc3)cc2n1	35% (inactive)
c1ccc(N2CCN(c3nncc4ccccc34)CC2)nc1	104% (inactive)
CCOC(=O)c1c(NC(=O)C2CCCCC2C(=O)O)sc2c1CCCC2 (stereo not given)	97.9% (inactive)

# context switch: different compound, same growth
State its growth for this compound: `c1coc([C@@H]2C[C@@H]3Cc4ccc5ccccc5c4N2O3)c1`
103% (inactive)

---

System: HCT-116 colon
assay-comment: NCI-60 one-dose screen, 48 h
measurement-conditions: 10 µM unless noted
The panel holds about 83,000 compounds, 20% with a hit somewhere; the sample as a whole holds those more often. Calls of active or inactive are those of the source. Rule for the calls: active = growth percent below 10; inactive = the rest.
Just give me one of these, please: true (1) for active, false (0) for inactive

CCOC(=O)C1=NN(c2ccc(Cl)cc2)C2C3N(c4ccc(Cl)cc4)N=C(C(=O)OCC)N3c3ccccc3N12 (stereo unspecified)	false (0)
c1ccc(-c2nn[nH]n2)c(-c2ccc(CN3CCN(c4nsc5ccccc45)CC3)cc2)c1	false (0)
CNc1ccc(CSc2ccc(Cl)cc2)cc1	false (0)
COc1ccc(/C=C2\COc3ccc(O)c(O)c3C2=O)cc1OC	true (1)
COc1cc(/C=C/C(=O)Nc2cccnc2Nc2cc(OC)c(OC)c(OC)c2)cc(OC)c1OC	false (0)

Each compound tested received a call. Report the one for `O=C1C(=O)c2ccc(Br)cc2-c2cc(Br)ccc21` .
true (1)

Name the outcome recorded for `O=C(/C(=C/c1ccc([N+](=O)[O-])cc1)c1ccccc1)c1ccccc1` in the assay.
true (1)

Called result for `Cc1ccc2c(c1)C(=O)/C(=C/c1ncc([N+](=O)[O-])n1C)O2`
true (1)

For `O=c1[nH]c(Cl)nc2c1cnn2-c1ccccc1` , which call appears in the assay record?
false (0)

Called result for `CC[N+](CC)(CCOCCOCC[N+](CC)(CC)Cc1ccc([N+](=O)[O-])cc1)Cc1ccc([N+](=O)[O-])cc1`
false (0)

Outcome? `CCCn1cnc2c1c(=O)n(CCCCC(C)=O)c(=O)n2C`
false (0)

What outcome does the record of this test show for `NC(=O)c1ncn([C@@H]2O[C@H](CO)[C@@H](O)[C@H]2O)n1` ?
false (0)

---

System: U251 CNS
assay-comment: NCI-60 one-dose screen, 48 h (100 = growth as untreated, 0 = no growth, -100 = all killed)
measurement-conditions: 10 µM unless noted
Description: Growth inhibition of the U251 human tumor cell line is measured as a screen for anti-cancer activity. Cells are grown in 96 well plates and exposed to the test compound for 48 hours. Compounds are tested at a single concentration, which is 10^-5 M for most compounds. The reported endpoint is percent growth (GI% or GIPRCNT), where numbers from 0 - 100% represent growth inhibition, and numbers from -100% - 0 represent cell death. For example, a value of 40 represents 60% growth inhibition. […]
This is part of a sample that, as a whole, favours compounds with a hit. Of some 83,000 tested, about 20% had one in any assay.
Returns: string. Value is TRUE if measured growth is below 30%, and FALSE if it is greater than or equal to it.

As a guide, the following entries are already answered.
COc1ccc2nc(NC(=O)c3cc(-c4ccc(F)cc4)n4nc(-c5ccccc5)cc4n3)sc2c1	FALSE
O=C(NCCCO)c1cc(Cl)ccc1O	TRUE
COc1ccc(C2=NNC(c3cc(Cc4ccc(O)c(C5CC(c6ccc(OC)cc6)=NN5)c4)ccc3O)C2)cc1 (stereo not given)	TRUE
O=C(Nc1cccc([N+](=O)[O-])c1)c1cccc(C(=O)Nc2cccc([N+](=O)[O-])c2)c1	FALSE
O=C1CCCN1C1CCN(Cc2cc3ccccc3[nH]c2=O)c2ccccc21 (stereo not given)	FALSE

hey, is growth for `N#CCCCCCn1c2ccccc2c2c3c(c4c5ccccc5[nH]c4c21)C(=O)N(O)C3=O` lower than 30% or not?
TRUE

Is 30% strictly greater than the compound's reported growth? compound: `OC(CCC(O)(c1ccccc1)c1ccccc1)(c1ccccc1)c1ccccc1`
FALSE

---

System: KM12 colon
assay-comment: NCI-60 one-dose screen, 48 h (100 = growth as untreated, 0 = no growth, -100 = all killed)
measurement-conditions: 10 µM unless noted
This is part of a sample that, as a whole, favours compounds with a hit. Of some 83,000 tested, about 20% had one in any assay.
I would appreciate it if you labelled entries class 1 when growth is 50% or higher, otherwise class 0.

O=C1C2C3C=CC(O3)C2C(=O)N1Nc1ccccc1 (stereo unspecified)	class 1
Cc1ccsc1/C=C/C1=NCCCN1C	class 1
CCn1c2ccccc2c2ccc(C(C)=O)cc21	class 1
COc1ccc2c(c1)C(=O)/C(=C/c1ccc([N+](=O)[O-])s1)O2	class 0
CC(=O)Oc1ccc(C23c4ccccc4C2(OC(C)=O)c2cc(OC(C)=O)ccc23)cc1 (stereo unspecified)	class 0
COc1cc2c(-c3nc4cc(Cl)c(F)cc4s3)cc(=O)oc2c(C)c1OC	class 0
O=C(NCCc1ccccc1)C1CCC(=O)N1Cc1ccc(Br)cc1 (stereo unspecified)	class 1
CN1CCN(Cc2ccc(NC(=O)c3[nH]ncc3Nc3ccnc4ccnn34)cc2)CC1	class 0
COc1c(C)c2c(c(O)c1C/C=C(\C)CCC(=O)OCCN1CCOCC1)C(=O)OC2	class 0
O=C(Nc1ccccc1Cl)c1cnc2ccc(C3CCNCC3)cn12	class 1

Tell me whether growth is at least 50% here: `CCCc1cccc(CCC)c1O`
class 1

---

System: RXF 393 renal
assay-comment: NCI-60 one-dose screen, 48 h
measurement-conditions: 10 µM unless noted
About 83,000 compounds went through this panel and 20% of them were active in at least one assay; those are over-represented in the sample as a whole. Calls of active or inactive are those of the source. Rule for the calls: active = growth percent below 10; inactive = the rest.
Mark one answer only. Choices: active, inactive

Sample answers from the record:
Cc1c(C(N)=O)sc2ncn(CC(=O)Nc3ccc(Cl)cc3)c(=O)c12	inactive
N#Cc1cnc2cc(OC[C@H](O)CO)c(NC(=O)CC3CSSC3)cc2c1Nc1ccc(OCc2cccc(F)c2)c(Cl)c1	active
Cn1c(N)c(N=O)c(=O)[nH]c1=O	inactive

Dear colleague, could you share the recorded outcome for CCC(C)CC(C)C(=O)c1c(O)ccn(OC)c1=O (stereo unspecified) when you have a moment?
inactive

Hello, I am checking results. What call was entered for `CCCc1cccc(CCC)c1O` ?
inactive

State the result this test recorded for `Nc1ccc(C2=Nc3cccc4cccc(c34)S2)cc1` .
inactive

---

Tested on: SN12C renal
assay-comment: NCI-60 one-dose screen, 48 h
measurement-conditions: 10 µM unless noted
This is part of a sample that, as a whole, favours compounds with a hit. Of some 83,000 tested, about 20% had one in any assay. Activity calls are given as the source filed them. Rule for the calls: active = growth percent below 10; inactive = the rest.
Response enum: active, inactive

Example entries and their recorded answers appear below.
NS(=O)(=O)c1ccc(NC2=C(Cl)C(=O)c3ccccc3C2=O)cc1	inactive
CC(C)c1nc(N(C)S(C)(=O)=O)nc(-c2ccc(F)cc2)c1/C=C/[C@@H](O)C[C@@H](O)CC(=O)O	inactive
Cc1nn(-c2ccccc2)c2nc3c(nc12)C(=O)CCC3	inactive
COC(=O)CCC1=C(C)C(C)=N/C1=C\c1[nH]c(-c2ccc[nH]2)cc1OC	inactive
Cc1ccc(C(C)C)cc1NC(=O)Nc1ccc([N+](=O)[O-])cc1	inactive

Which outcome did this test record for the molecule `Cc1c(C(N)=O)sc2ncn(CC(=O)Nc3ccc(Cl)cc3)c(=O)c12` ?
inactive

Hi team, can someone confirm the assay call for `CN(C)c1ccc2c(c1)/C(=N/O)c1ccccc1-2` ?
inactive

Recorded call for `CCOc1nc(-c2ccccc2)cc2c(O)c(-c3nnco3)[nH]c(=O)c12` ?
inactive

Can you look up the reported call for `O=C1NC(=O)/C(=C\c2ccccc2)C2=C1CCCC2` for me?
active

Assay result, entry `Cc1cc(NC(=O)Nc2cccc3ccccc23)no1` — outcome?
inactive

Could you kindly confirm the outcome this assay logged for O=NC1CC=CCC1c1ccccc1 (stereo unspecified) ?
inactive

---

Tested on: T-47D breast
assay-comment: NCI-60 one-dose screen, 48 h (100 = growth as untreated, 0 = no growth, -100 = all killed)
measurement-conditions: 10 µM unless noted
The panel holds about 83,000 compounds, 20% with a hit somewhere; the sample as a whole holds those more often.
Form field: growth (one value per entry).
Report as a plain number; the unit % is understood.

c1ccc2c(c1)[nH]c1c2cc[n+]2cc3c(cc12)CCCC3	-13.8
O=C1OCCCCCCCCCC#Cc2ccccc21	80.1
CN(C)c1ccc(/C=C\c2ccnc3ccccc23)cc1	65.4
Clc1ccc(-c2nc(-c3cccs3)no2)c(Cl)c1	51.7
COC(=O)CC1=C(C)/C(=C/c2[nH]c(-c3ccc[nH]3)cc2OC)N=C1C	0.172

Now look at this entry.
Entry `C/C(=N\N1CC(=O)NC1=O)c1ccc([N+](=O)[O-])o1` needs its growth filled in; supply it.
102
